system_tested: T1, human TMEM106B (human, UniProt Q9NUM4 2-274)
T1 construct: Full-length cDNA transiently transfected into HEK293 cells; also called huTMEM106B
experiment_description: flow cytometry, HEK293 cells transiently transfected with human TMEM106B
reported_metric: fold-change in binding over parental HEK293 cells (fold)
Respond with the bare value in fold.

Prompt line: # fold-change in binding over parental HEK293 cells lookup, item TM-93 (antibody, V domains shown, Purified from mouse hybridoma) VH: QVQLKESGPGLVAPSQSLSITCTVSGFSLSSYGISWVRQPPGKGLEWLGVIWTGGGTNYNSALESRLSITKDNSKSQVFLKMNSLQTDDTARYYCARNPPKIFYDYLMYFDYWGQGTTVTVSS VL: DIVMTQSHKLMSTSVGDRVSITCKASQDVGSAVAWYQQKPGQSPQLLIYWSSTRLPGVPDRFTGSGSGTDFTLTISNVQSEVLADYFCQQYTSYPLTFGGGTKLEIK
Response line: 11.5

Prompt line: What about TM-91 (antibody, V domains shown, Purified from mouse hybridoma) VH: DVQLQESGPGLVKPSQSLSLTCSVTGYSITSGYYWDWIRQFPGNKLEWMGYISYDGNNNYNPSLKNRISITRDTSKNQFFLKLNSVTTEDTATYYCARAVYSVGFAYWGQGTLVTVSS VL: DIVMTQSQKFMSTSVGDRVSVTCKASQNVYTNVAWYQQKPGQSPKPLIYSASYRYSGVPDRFTGSGSGTDFTLTISNVQSEDLAEYFCQQYNSYPLTFGGGTKLEIK ?
Response line: 5.22

Prompt line: What about TM-90 (antibody, V domains shown, Purified from mouse hybridoma) VH: QVHLQQSGPELVKPGASVKLSCKASGYPFTSYDINWVKQRPGQGLEWIGWIYPRDGNAKYNEKFKGKATLTVDTSSSTAYMELHSLTSENSAVYFCARVSDYHGGYGMDYWGQGTSVTVSS VL: DVLMTQTPLSLPVSLGDQASISCRSSQSFVHGNGNTYLEWYLQKPGQSPKLLIYKVSHRFSGVPDRFSGSGSGTDFTLKITRVEAEDLGVYYCFQNSHVPHTFGGGTKLEIK ?
Response line: 1.25
